# assayed-system: T1, mouse GPNMB endogenously expressed on B16F10 cells (mouse, UniProt Q99P91 23-574)
# T1 construct: whole, on cells; also called moGPNMB
# T1 sequence (looked up): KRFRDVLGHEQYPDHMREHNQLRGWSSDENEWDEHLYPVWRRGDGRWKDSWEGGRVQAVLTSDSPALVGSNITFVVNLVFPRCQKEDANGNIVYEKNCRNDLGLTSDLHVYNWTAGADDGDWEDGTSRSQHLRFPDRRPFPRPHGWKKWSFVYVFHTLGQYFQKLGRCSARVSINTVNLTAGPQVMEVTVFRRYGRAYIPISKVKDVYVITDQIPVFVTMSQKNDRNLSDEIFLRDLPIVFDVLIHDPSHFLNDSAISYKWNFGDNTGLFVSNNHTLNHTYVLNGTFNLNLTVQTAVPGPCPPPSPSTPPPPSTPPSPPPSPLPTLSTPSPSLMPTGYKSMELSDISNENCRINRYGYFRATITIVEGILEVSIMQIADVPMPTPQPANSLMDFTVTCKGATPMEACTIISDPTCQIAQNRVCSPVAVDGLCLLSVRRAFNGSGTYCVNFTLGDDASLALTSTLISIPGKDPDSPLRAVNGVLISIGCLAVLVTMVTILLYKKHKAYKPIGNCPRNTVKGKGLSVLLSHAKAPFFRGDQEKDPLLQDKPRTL
# assay-procedure: FACS titration, B16F10 cells
measured-parameter: EC50
Param answer (str): number followed by unit.

Task: Which EC50 is reported for this binder? anti-GPNMB antibody GPN-42 (antibody, human IgG1, V domains shown, chimeric) VH: DVKLVESGEDLVKPGGSLKLSCAASGFTFSSYAMSWVRQTPEKRLEWVAYISSGGDYIYYADTVKGRFTISRDNARNTLYLQMSSLKSEDTAMYYCTRDRYYDYDVRDYYTMDYWGQGTSVTVSS VL: DVMMTQTPLSLPVSLGDQASISCRSSQSLVHSNGNTYLHWFLQKPGQSPKLLIFRVSNRFSGVPDRFSGRGSGTDFTLKISRVEAEDLGVYFCSQTTHVPRTFGGGTTLEIK
Output: 76.5 nM
